Target: human Proteasome (20S proteasome, chymotryptic activity) (Homo sapiens, UniProt P28074)
Construct: purchased Immatics, Tübingen
Assay: chymotryptic activity of the 20S proteasome (Suc-LLVT-AMC substrate, fluorescence)
Assay type: biochemical
Details: unit nm [sic]
Description: The chymotryptic activity of the 20S proteasome (Immatics, Tüibingen) was determined using a Tecan Ultra plate reader and Suc-LLVT-AMC as substrate (Bachem). […]
Reported IC50 values are given for each entry in this list.
Assay Endpoint: IC50 (nM)

INSERT INTO measurements (compound, quantity_unit, measured_number) VALUES
  ('O=C1CN(/N=C/C(Cc2ccccc2)NC(=O)C(Cc2c[nH]c3ccccc23)NC(=O)C(Cc2c[nH]c3ccccc23)NC(=O)OCc2cnccn2)C(=O)N1 (stereo not shown)', 'nM', 133),
  ('O=C1CN(/N=C/C(Cc2ccccc2)NC(=O)C(Cc2c[nH]c3ccccc23)NC(=O)C(Cc2c[nH]c3ccccc23)NC(=O)Cc2cccc(Oc3ccccc3)c2)C(=O)N1 (stereo not shown)', 'nM', 224),
  ('O=C1CN(/N=C/C(Cc2ccccc2)NC(=O)C(Cc2c[nH]c3ccccc23)NC(=O)C(Cc2c[nH]c3ccccc23)NC(=O)OCc2ccccc2)C(=O)N1 (stereo not shown)', 'nM', 157),
  ('O=C1CN(/N=C/C(Cc2ccccc2)NC(=O)C(Cc2c[nH]c3ccccc23)NC(=O)C(Cc2c[nH]c3ccccc23)NC(=O)OCc2cccnc2)C(=O)N1 (stereo not shown)', 'nM', 61);
